Kindly supply the reported TGI values for the records listed here.
# Tested on: HOP-62 NSCLC
# assay-name: NCI tumour cell line growth inhibition, 48 h

What value of TGI has been reported for the following compound? CCN(C(=O)N1CCN(c2cc3c(cc2F)c(=O)c(C(=O)O)cn3C2CC2)CC1)c1nc(-c2ccc(Cl)cc2)cs1
17.7 µM

Recorded TGI of CCc1c(OC(C)=O)c2c(NC3OCC(OC(C)=O)C(OC(C)=O)C3OC(C)=O)nc(SC)nc2oc1=O (stereo not given) , please.
> 100 µM

Fill in: TGI of COc1ccc2cc1Oc1ccc(cc1)C[C@H]1c3cc(c(OC)cc3CCN1C)Oc1c(O)c(OC)cc3c1[C@H](C2)N(C)CC3 is ___
65.7 µM

I'd like to know its TGI. The compound in question is CC(C)=CCC(O)C1=CC(=O)c2c(O)ccc(O)c2C1=O (stereo not given)
4.95 µM

Any idea what its TGI is? The compound is Cc1cccc(C)c1NC(=O)CCCC(=O)C1/C(=N/NC(=O)CC#N)CCC/C1=N\NC(=O)CC#N (stereo not given)
> 100 µM

Look at this compound and give its reported TGI. C/C(CCn1[nH]c(=O)ccc1=O)=N\NC(=O)C(=O)NN
> 100 µM

Given the compound O=C1CCCCN1c1ccccc1C#C/C=C\C#Cc1ccccc1C(F)(F)F , what is its reported TGI?
2.94 µM

Given NC(=O)c1ccccc1NC(=O)C(=O)C(C(=O)c1ccc(Cl)c(Cl)c1)C1OC(=O)c2ccccc21 (stereo not given) , state its recorded TGI.
> 100 µM

Record request: TGI value, item CC1=Nc2ccccc2OC(C)=C1N=Nc1ccc2nc(C)[nH]c2c1
> 100 µM

Item under review: COc1ccc(C(=C2C=CC=C2)c2ccc(OC)cc2)cc1 . Reported TGI?
> 100 µM

Field request: TGI | item: Cc1ccccc1OC(C)C(=O)NN1C(=O)CSC1c1ccccc1 (stereo not given)
> 100 µM

What does the record list as TGI for C/C(=C\CBr)CCC(Br)C(C)(C)Br (stereo not given) ?
> 100 µM

Given the compound N#Cc1c[nH]n2c(N=Nc3ccc(Cl)cc3)c(O)nc12 , what is its reported TGI?
> 100 µM

Data request, read-out TGI, for COc1cc(S(=O)(=O)Nc2nc(-c3ccc(N4C(=O)C(CC(=O)O)SC4c4cccs4)cc3)cs2)ccc1Cl (stereo not given)
> 100 µM

Can you share its TGI? I mean this compound: Nc1nc(SCCC/C=C/I)nc2c1ncn2C1OC(COP(=O)(O)O)C(O)C1O (stereo not given)
> 100 µM

Item under review: Nc1n[nH]c2cccc(C#Cc3cccc(C(=O)Nc4ccc(CN5CCOCC5)c(C(F)(F)F)c4)c3)c12 . Reported TGI?
10.1 µM

Query (compound): O=C1c2cc3c(cc2-c2c1c1ccc(F)cc1c(=O)n2C[C@H](O)[C@@H](O)[C@H](O)CO)OCO3 ; field requested: TGI
0.27 µM

// query TGI value for entry O=C1C=C[C@@H](COC2OC(CO)C(O)C(O)C2O)O1 (stereo not given in full)
> 100 µM

Quick one: TGI of Nc1cc(NN=C(c2ccc(O)cc2)c2ccc(O)cc2)c([N+](=O)[O-])cc1[N+](=O)[O-] ?
3.98 µM

Fill in the blank: the reported TGI of O=C(Cc1ccc(O)c(O)c1)NCc1c[nH]c2ccccc12 is ____.
> 100 µM

Reference source for all entries: PubChem BioAssay (NCI)
